- Measurement Notes: Cell Viability - LYMP2-022 (AID 987);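 note: cells exposed to compound for 24 hr; nearly all actives have a fitted effect of over 55% in size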
- Conditions: LYMP2-022 lymphoblastoid cell viability; series mostly up to 92.2 µM
Results filed as inconclusive are left out. Calls of active or inactive are those of the source. Calls come from the whole dose curve; as a rule, active = well fitted cell-killing curve with a large enough effect; inconclusive = small, poorly fitted or top-dose-only effect; inactive = flat fitted curve, though single readings scatter.
Tick one outcome: active, inactive

Use the examples below as a reference point.
1) O=C(O)CCCCC(=O)O; inactive
2) COC1=CC(=O)C[C@@H](C)[C@]12Oc1c(Cl)c(OC)cc(OC)c1C2=O; inactive
3) CN(C)/N=N/c1nc[nH]c1C(N)=O; inactive
4) CC(=O)O[C@]1(C(C)=O)CC[C@H]2[C@@H]3C[C@H](C)C4=CC(=O)CC[C@]4(C)[C@H]3CC[C@@]21C; active

Just curious, what result did `O=C1OC(c2ccc(O)cc2)(c2ccc(O)cc2)c2ccccc21` get here?
inactive

Request: `Oc1ccc(O)cc1`
active

* * *

- Test system: CP217
- Measurement Notes: qHTS profiling for inhibitors of Plasmodium falciparum proliferation (AID 504749); note: nearly all actives have a fitted effect of over 60% in size
- Conditions: P. falciparum in erythrocytes, SYBR Green DNA, 72 h; series mostly up to 28.7 µM
Inconclusive results are not listed. Calls of active or inactive are those of the source. Calls come from the whole dose curve; as a rule, active = well fitted inhibition curve with a large enough effect; inconclusive = small, poorly fitted or top-dose-only effect; inactive = flat fitted curve, though single readings scatter.
Please answer using one outcome listed in Y (active), N (inactive)

Answered cases to consult:
1) N[C@@H](Cc1cnc[nH]1)C(=O)O; N
2) Cc1c(C)n(Cc2ccccc2)c2ccc(C(=O)OCCN(C)C)cc12; N
3) CC(O)(P(=O)(O)O)P(=O)(O)O; N
4) CN1C(CCl)Nc2cc(Cl)c(S(N)(=O)=O)cc2S1(=O)=O (configuration not stated); N
5) COc1cc2c(cc1OC)C(C(C(=O)N(CCc1ccc(OC)c(OC)c1OC)CCc1ccc(OC)c(OC)c1OC)c1ccccc1)=NCC2 (configuration not stated); Y
6) O=C(O)CNC(=O)c1ccccc1; N
7) NCCC(O)(P(=O)(O)O)P(=O)(O)O; N
8) CC(C)(Oc1ccc(Cl)cc1)C(=O)O; N

Short answer needed: outcome of this test for `Nc1ccc(/C=C/c2ccc(N)cc2S(=O)(=O)O)c(S(=O)(=O)O)c1` ?
N

Also check `CCOC(=O)n1ccn(C)c1=S`
N

// repeat for `COc1c(C)c2c(c(O)c1C/C=C(\C)CCC(=O)O)C(=O)OC2` and report
Y

* * *

- System Tested: Protein phosphatase 1D (Homo sapiens)
- Measurement Notes: RapidFire Mass Spectrometry qHTS Assay for Modulators of WT P53-Induced Phosphatase 1 (WIP1) (AID 1347424);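 note: amount of dephosphorylated VEPPL-S-QETFS peptide product formed by WIP1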
- Conditions: WIP1 dephosphorylation of phosphopeptide, RapidFire MS; series mostly up to 63 µM
Results filed as inconclusive are left out. Active and inactive are the calls of the source. Calls follow the shape of the dose curve; as a rule, active = well fitted inhibition curve with a large enough effect; inconclusive = small, poorly fitted or top-dose-only effect; inactive = no such curve, though single readings can be large or run the other way.
I would appreciate it if you answered using one of these outcomes: active, inactive

Reference set (5 entries):
1. CC(=O)OCC(=O)NCCCOc1cccc(CN2CCCCC2)c1; inactive
2. CC(=O)O[C@]1(C(C)=O)CC[C@H]2[C@@H]3C[C@H](C)C4=CC(=O)CC[C@]4(C)[C@H]3CC[C@@]21C; inactive
3. CCCCCCc1ccc(O)cc1O; inactive
4. CC(=O)N/N=C/c1ccc([N+](=O)[O-])o1; inactive
5. O=C(COc1ccc(Cl)cc1)N1CCN(Cc2ccc3c(c2)OCO3)CC1; inactive

Could you kindly confirm the outcome this assay logged for Cc1c(F)c(N2CCNC(C)C2)cc2c1c(=O)c(C(=O)O)cn2C1CC1 (stereo not given) ?
inactive
